test: Single dose oral pharmacokinetic studies; format: in vivo, Male Swiss Albino Mice; conditions: male, Swiss Albino, mouse, in vivo, po
Counter-ions that a name gives are not always drawn.
REPORTED_ENDPOINT: AUC(0-inf) (µM·h)

compound="CC[C@@]1(O)C(=O)OCc2c1cc1n(c2=O)C(OCCF)c2cc3c(CN(C)C)c(O)ccc3nc2-1 (stereo partly shown) [Example 3, hydrochloride]" observed_value=9.74

###

assay: Single dose oral pharmacokinetic studies; assay type: in vivo, Male Swiss Albino Mice; conditions: male, Swiss Albino, mouse, in vivo, po
Where a name gives a salt, the structure may show the parent alone.
REPORTED_ENDPOINT: AUC(0-t) (µM·h)

molecule="CC[C@@]1(O)C(=O)OCc2c1cc1n(c2=O)C(OCCF)c2cc3c(CN(C)C)c(O)ccc3nc2-1 (stereo partly shown) [Example 3, hydrochloride]" reported_endpoint=AUC(0-t) units=µM·h observed_value=6.1
